Molecular target: NADPH oxidase 4 (Homo sapiens) (UniProt Q9NPH5)
Sequence (Q9NPH5 whole entry, looked up): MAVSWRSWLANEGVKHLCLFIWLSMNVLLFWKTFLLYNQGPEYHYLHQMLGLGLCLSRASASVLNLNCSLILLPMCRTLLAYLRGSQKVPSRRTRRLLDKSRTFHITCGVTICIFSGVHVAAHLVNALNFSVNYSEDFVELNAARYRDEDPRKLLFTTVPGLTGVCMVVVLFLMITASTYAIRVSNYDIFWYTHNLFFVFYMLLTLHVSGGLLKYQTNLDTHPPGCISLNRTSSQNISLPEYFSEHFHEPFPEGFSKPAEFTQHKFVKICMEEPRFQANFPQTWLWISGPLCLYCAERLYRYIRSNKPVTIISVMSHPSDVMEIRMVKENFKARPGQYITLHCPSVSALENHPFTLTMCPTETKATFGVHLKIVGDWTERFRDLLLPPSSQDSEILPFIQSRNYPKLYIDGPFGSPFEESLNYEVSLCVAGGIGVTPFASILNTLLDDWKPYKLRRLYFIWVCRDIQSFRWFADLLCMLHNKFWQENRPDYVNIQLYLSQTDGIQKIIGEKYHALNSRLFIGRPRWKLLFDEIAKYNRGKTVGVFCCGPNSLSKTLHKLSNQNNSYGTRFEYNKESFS
Experiment: compounds shifting NOX4 Amplex Red fluorescence – cell-based, HEK293-NOX4, tetracycline-induced, NOX inhibitor project, primary screen (AID 1160)
Conditions: HEK293-NOX4, Amplex Red H2O2 fluorescence, 45 min; higher = more signal, called active from +8 up or from −8 down
recorded.endpoint: z-score
// keep it numeric: no unit symbol after the value

CCCN1C(=O)[C@@]2(Cc3ccccc3)N=C(c3ccc(OCCCO)cc3)O[C@H]2c2ccccc21 -0.584
CCCCCCC#C[Si](O[C@H](c1ccccc1)c1cn(Cc2cccc(Cl)c2)nn1)(C(C)C)C(C)C -0.705
Cc1ccc(N2C(=O)c3ccccc3[C@](C)(C(=O)NC(C)C)[C@@H]2c2ccc(CO)cc2)nc1 -0.357
COCC(=C=CC[C@@H](O)c1ccccc1OCCO)C[C@@H](O)COCc1ccccc1 1.31
CCC[C@@H]1C[C@@]1(CCC)[C@@H](NC(=O)c1ccco1)c1ccc(Cl)cc1 -3.83

Okay, next one:
Field: z-score (NADPH oxidase 4 (Homo sapiens) (UniProt Q9NPH5)). Entry: "COC(=O)[C@@]1(Cc2ccccc2N=[N+]=[N-])N=C(c2ccc(OCCCO)cc2)O[C@H]1c1ccccc1"
0.355
